- Test System: HLA-B*35:01
- Protocol Summary: IEDB peptide-MHC binding, purified MHC/competitive/fluorescence; bounds were set here for any values at or beyond the usual limits of such assays
- Condition Set: source organism: Homo sapiens
Recorded Endpoint: IC50

Which IC50 value is on record for YFYYNAFHWAI ?
≥ 20 µM

---

- Test System: HLA-A*02:06
- Protocol Summary: IEDB peptide-MHC binding, purified MHC/competitive/fluorescence; filed as Kd, often an IC50 or EC50 that approximates it; bounds were set here for any values at or beyond the usual limits of such assays
- Condition Set: source organism: Burkholderia orbicola
Recorded Endpoint: pKd
Notebook: values listed as pKd are -log10 of the concentration (mol/L).

Identify the measured pKd of MQACPVDAI for HLA-A*02:06.
8.89

---

- Test System: HLA-B*18:01
- Protocol Summary: IEDB peptide-MHC binding, purified MHC/competitive/radioactivity; filed as Kd, often an IC50 or EC50 that approximates it; bounds were set here for any values at or beyond the usual limits of such assays
- Condition Set: source organism: Variola virus
Recorded Endpoint: Kd (nM)
# output: bare number, implied unit nM

Identify the measured Kd of TEYDGHINL for HLA-B*18:01.
11.5

---

- Test System: HLA-B*46:01
- Protocol Summary: IEDB peptide-MHC binding, purified MHC/competitive/fluorescence; filed as Kd, often an IC50 or EC50 that approximates it; bounds were set here for any values at or beyond the usual limits of such assays
- Condition Set: source organism: Orthohantavirus sinnombreense
Recorded Endpoint: Kd

Which Kd value is on record for HTVGLGQGY ?
≥ 20 µM

---

- Test System: HLA-B*15:17
- Protocol Summary: IEDB peptide-MHC binding, purified MHC/competitive/fluorescence; filed as Kd, often an IC50 or EC50 that approximates it; bounds were set here for any values at or beyond the usual limits of such assays
- Condition Set: source organism: Human immunodeficiency virus 1
Recorded Endpoint: Kd
Show the value, then the unit it is measured in.

Identify the measured Kd of GTEEIRSLY for HLA-B*15:17.
60.5 nM

Identify the measured Kd of LFNTIATLY for HLA-B*15:17.
2510 nM

---

- Test System: HLA-A*02:16
- Protocol Summary: IEDB peptide-MHC binding, purified MHC/competitive/fluorescence; filed as Kd, often an IC50 or EC50 that approximates it; bounds were set here for any values at or beyond the usual limits of such assays
- Condition Set: source organism: Vibrio vulnificus CMCP6
Recorded Endpoint: Kd

Which Kd value is on record for LEMNDAPTA ?
≥ 20 µM

---

- Test System: HLA-A*23:01
- Protocol Summary: IEDB peptide-MHC binding, purified MHC/competitive/fluorescence; filed as Kd, often an IC50 or EC50 that approximates it; bounds were set here for any values at or beyond the usual limits of such assays
- Condition Set: source organism: Salmonella enterica subsp. enterica serovar Choleraesuis str. SC-B67
pKd: −log10 of the molar value.
Recorded Endpoint: pKd

Which pKd value is on record for GIALAVPCV ?
≤ 4.70

---

- Test System: HLA-A*03:01
- Protocol Summary: IEDB peptide-MHC binding, purified MHC/competitive/fluorescence; filed as Kd, often an IC50 or EC50 that approximates it; bounds were set here for any values at or beyond the usual limits of such assays
- Condition Set: source organism: Entamoeba dispar SAW760
Recorded Endpoint: pKd
Notebook: values listed as pKd are -log10 of the concentration (mol/L).

Which pKd value is on record for MVYKLWFKY ?
4.85
